Molecular target: Arginase-2, mitochondrial (Homo sapiens) (UniProt P78540)
Sequence (P78540 whole entry): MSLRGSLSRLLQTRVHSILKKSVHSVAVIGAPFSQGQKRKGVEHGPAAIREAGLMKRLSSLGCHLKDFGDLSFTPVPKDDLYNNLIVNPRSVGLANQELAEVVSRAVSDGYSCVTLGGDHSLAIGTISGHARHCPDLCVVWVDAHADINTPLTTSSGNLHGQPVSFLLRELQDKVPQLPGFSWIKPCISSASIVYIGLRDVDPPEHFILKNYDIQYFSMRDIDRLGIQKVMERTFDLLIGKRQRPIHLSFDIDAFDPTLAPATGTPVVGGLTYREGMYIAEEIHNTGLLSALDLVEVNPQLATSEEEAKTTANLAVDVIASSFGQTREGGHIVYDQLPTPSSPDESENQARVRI
Assay: in vitro enzyme assay to detect the production of urea directly proportional to the activity of Arginase II
Format: functional
Design: scale not given: in the data most compounds retested in dose-response had high values
Settings: 33.3 µM
Reported Percent Effect values follow for various compounds
Express the result in % but write the number alone.

// solved cases for Percent Effect follow
O=C(c1cccnc1O)N(Cc1ccsc1)CC1CCCO1 (stereo not drawn); 12.9
Cc1csc(C2CCCCN2C(=O)CN(C)C2CC2)n1 (stereo not drawn); -2.37
CC(O)CN1CCN(C(=O)CN(C)c2cnccn2)CC1 (stereo not drawn); -70

Ask | Report Percent Effect under test system Arginase-2, mitochondrial (Homo sapiens) (UniProt P78540) for O=C(NCc1cnc2n1CCN(CC1CC1)CC2)C1CCC1 .
Reply | 18.1

Ask | Report Percent Effect under test system Arginase-2, mitochondrial (Homo sapiens) (UniProt P78540) for Cc1cnn(CC2CN(Cc3nc(-c4ccoc4)no3)CCO2)c1 (stereo not drawn) .
Reply | 0.401

Ask | Report Percent Effect under test system Arginase-2, mitochondrial (Homo sapiens) (UniProt P78540) for Cc1noc([C@@H]2CC[C@@H]3[C@@H](CCN3S(=O)(=O)C3CC3)O2)n1 .
Reply | 3.33

Ask | Report Percent Effect under test system Arginase-2, mitochondrial (Homo sapiens) (UniProt P78540) for COc1cc(CNc2cnn(C)c2)cc2c1OCCO2 .
Reply | -1.15

Ask | Report Percent Effect under test system Arginase-2, mitochondrial (Homo sapiens) (UniProt P78540) for COc1ccccc1CN(C)C(=O)c1cc(CN2CCC(O)CC2)on1 .
Reply | 18.6

Ask | Report Percent Effect under test system Arginase-2, mitochondrial (Homo sapiens) (UniProt P78540) for CCOCC1CN(C(=O)c2cccn2C)Cc2cnn(CC3CC3)c21 (stereo not drawn) .
Reply | -12.3

Ask | Report Percent Effect under test system Arginase-2, mitochondrial (Homo sapiens) (UniProt P78540) for COCCN1CC[C@@H]2OC[C@H](C(=O)NCc3cccs3)C[C@@H]2C1 .
Reply | 1.59

Ask | Report Percent Effect under test system Arginase-2, mitochondrial (Homo sapiens) (UniProt P78540) for O=C(NCCNc1ccc(C(F)(F)F)cn1)c1cncc(Br)c1 .
Reply | 3.58

Ask | Report Percent Effect under test system Arginase-2, mitochondrial (Homo sapiens) (UniProt P78540) for Cc1ccc(C2CSCCN2C(=O)C2=CCCC2)o1 (stereo not drawn) .
Reply | 1.24

Ask | Report Percent Effect under test system Arginase-2, mitochondrial (Homo sapiens) (UniProt P78540) for CN1CCC(c2cccc(Cc3ccc(F)cc3)n2)CC1 .
Reply | -6.26

Ask | Report Percent Effect under test system Arginase-2, mitochondrial (Homo sapiens) (UniProt P78540) for COCCCC1(CO)CCCN(CCS(C)(=O)=O)C1 (stereo not drawn) .
Reply | 1.36

Ask | Report Percent Effect under test system Arginase-2, mitochondrial (Homo sapiens) (UniProt P78540) for NC(=O)C1CCCN(C(=O)c2cnc3c(cnn3C3CCCC3)c2)C1 (stereo not drawn) .
Reply | -3.04

Ask | Report Percent Effect under test system Arginase-2, mitochondrial (Homo sapiens) (UniProt P78540) for O=C(NC1(c2cccc(F)c2)CCOCC1)c1ccoc1 .
Reply | -6.9

Ask | Report Percent Effect under test system Arginase-2, mitochondrial (Homo sapiens) (UniProt P78540) for CN(C)C(=O)c1cccc(NC(=O)N(CCO)Cc2ccsc2)c1 .
Reply | 11

Ask | Report Percent Effect under test system Arginase-2, mitochondrial (Homo sapiens) (UniProt P78540) for CC(=O)N(C)c1nc(CN2CCOC(Cn3cccn3)C2)cs1 (stereo not drawn) .
Reply | 17.1

Ask | Report Percent Effect under test system Arginase-2, mitochondrial (Homo sapiens) (UniProt P78540) for COCCOc1ccc(NC(=O)C2CCCN(C(N)=O)C2)cn1 (stereo not drawn) .
Reply | 1.52

Ask | Report Percent Effect under test system Arginase-2, mitochondrial (Homo sapiens) (UniProt P78540) for COc1cccc(OCCNCc2c(C)nn(C)c2N(C)C)c1 .
Reply | 1.92

Ask | Report Percent Effect under test system Arginase-2, mitochondrial (Homo sapiens) (UniProt P78540) for Clc1snnc1CN1CCCCC1Cn1cncn1 (stereo not drawn) .
Reply | 2.66

Ask | Report Percent Effect under test system Arginase-2, mitochondrial (Homo sapiens) (UniProt P78540) for COc1ccnc(N2CCN(C(=O)NCc3ccc(C)s3)CC2)n1 .
Reply | 1.47

Ask | Report Percent Effect under test system Arginase-2, mitochondrial (Homo sapiens) (UniProt P78540) for CCc1nc2n(n1)CC(NCc1ncc(-c3ccccc3)o1)CC2 (stereo not drawn) .
Reply | 1.8
